Source: the supplement of paper PMC12042874

test: amyloid nucleation score (Sup35N fusion, yeast selection) (log enrichment); library NNK2; higher = more nucleation; inactive = no reads after selection;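 further: zero at mode of non-aggregating sequences after 7 days selection at 30°C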
Respond with Fulfilled for amyloid nucleation score values of 4 and above, Not fulfilled for values below.

MYSYFSRSMTHTNNGLSSLA Fulfilled

Check if amyloid nucleation score >= 4 (inclusive). Item: "AGYDATW"
Not fulfilled

Item: "GRVFEK"
Fulfilled

Do the same for "SKKTIVFGGTIRTTALPGPG" please
Not fulfilled

Similarly, "LLPRCDGGVLVHLNDKSYKL" ?
Not fulfilled

Param item: "TFVGSFEILAGNVLCVNKTK"
Fulfilled

And "DLIMETYHLVSKCTFCGIEN" ?
Fulfilled

Follow-up item: "LKFRRYVCKVLWEAYG"
Not fulfilled

====

assay: amyloid nucleation score (Sup35N fusion, yeast selection) (log enrichment); library NNK2; higher = more nucleation; inactive = no reads after selection
measured-parameter: amyloid nucleation score
Would you mind answering with just the numeric figure?

Observe how each entry below is paired with its result.
VLSHYIRLHKSLDLSYSNGV -0.817
CCNIGHNVMNY 2.9
SLNLFV -0.901
DCSYYPSGIFMGLMFNLIAM 3.23
RGLAES -0.2

Request the reported amyloid nucleation score associated with "GVGVGLYKFLTPCFYGEDDE"
0.594

Same thing, different substance: "FRWCKRMGLCNLVNDLGCDW"
0.446

What would you report for "YNRLMVGRPRLQHLSL" ?
-1.51

Same read-out for "AVWAEEGMPLMLGACRRTWG" ?
1.25

====

assay: amyloid nucleation score (Sup35N fusion, yeast selection) (log enrichment); library NNK2; higher = more nucleation; inactive = no reads after selection
amyloid nucleation score below -0.2 gives not met; amyloid nucleation score at or above it gives met.

Sample answers from the record:
KVRLGTLTYICYANSNRLCP met
ILLGYIISR not met
GFVTDFIIKSI not met
NKARWAPVRMEALLVAQRVG met
HKGCIIVWKTKRGLCRSARC not met
KPWTYDMVCSRFTSMWFCDY met
IYWMIIFWGFE met
SFPYNHFYMDYMPVRAPLVV met

Now for another entry.
Decide: is the reported value of amyloid nucleation score for "YGTCFS" equal to or greater than -0.2?
met

====

experiment: amyloid nucleation score (Sup35N fusion, yeast selection) (log enrichment); library NNK2; higher = more nucleation; inactive = no reads after selection
measured-parameter: amyloid nucleation score
The answer should be a number; do not append a unit.

SVRGRNDESAMLTLQRELRY -0.343

Bench note: what amyloid nucleation score did "HSSIIKSVAWAFNYDA" show?
0.159

One more substance: "SGFNGFSLNHFQNQFKTPRS"
-0.356

Try this substance next: "CVSFVQSFCYIHIQLNYHCR"
-0.43

Likewise for "AWRGFTSIGAYYAQFGLGVA" ?
0.431

====

Listed sequences paired with reported amyloid nucleation score
test: amyloid nucleation score (Sup35N fusion, yeast selection) (log enrichment); library NNK1; higher = more nucleation; inactive = no reads after selection

Some sequences with known amyloid nucleation score results, for comparison:
ANQRSAGYPSGYKCTYYNRS 0.838
RRDDVCELLVIP 0.351
VYRSHLRTNFSTFTSMSSVL -0.626
FYTAYCGLALRLVTTQPCMS -0.001
YHGIPFCMFFRVYAVR 0.216

I'd like to know its amyloid nucleation score. The sequence in question is "ILTDTSMGTSAVHRARQTLK"
0.066
